test system: binding site 2 of the sodium channel; experiment: BTX binding, sodium channel; details: 10 μM, percentage inhibition, [3H]-batrachotoxin A20 α-benzoate 10 nM, rat cerebral cortex synaptosomes
result-type: BTX Binding at 10 μM (%)
Please respond with the number in % and leave the unit unwritten.

Ask | Test system binding site 2 of the sodium channel; read-out BTX Binding at 10 μM; what value for CN(C)C(c1ccccc1)C1CCCCC1(O)Cc1ccc(Cl)cc1.Cl (stereo not drawn) ?
Reply | 94

Ask | CN(C)C(c1ccccc1)C1CCCCC1(O)c1ccc(Cl)cc1.Cl (stereo not drawn) ?
Reply | 90

Ask | CN(C)C(c1ccccc1)C1CCCCC1(O)Cc1cccc(F)c1F.Cl (stereo not drawn) ?
Reply | 97

Ask | CN(C)C(c1ccccc1)C1CCCCC1(O)Cc1ccc(F)c(F)c1.Cl (stereo not drawn) ?
Reply | 94

Ask | CN(C)C(c1ccccc1)C1CCCCC1(O)c1ccc(F)c(C(F)(F)F)c1.Cl (stereo not drawn) ?
Reply | 94

Ask | Cc1ccc(C2(O)CCCCC2C(c2ccccc2)N(C)C)cc1.Cl (stereo not drawn) ?
Reply | 88

Ask | CN(C)C(c1ccc(Cl)c(Cl)c1)C1CCCCC1(O)Cc1ccc(C(C)(C)C)cc1.Cl (stereo not drawn) ?
Reply | 96

Ask | CN(C)C(c1ccccc1)(c1cccc(Oc2ccccc2)c1)C1CCCCC1(O)Cc1ccccc1.Cl (stereo not drawn) ?
Reply | 100

Ask | CN(C)C(c1ccccc1Cl)C1CCCCC1(O)Cc1ccccc1.Cl (stereo not drawn) ?
Reply | 96

Ask | CN(C)C(c1ccccc1)C1CCCCC1(O)CCCc1ccccc1.Cl (stereo not drawn) ?
Reply | 98

Ask | CN(C)C(c1cccs1)C1CCCCC1(O)Cc1ccc(C(C)(C)C)cc1.Cl (stereo not drawn) ?
Reply | 98

Ask | CN(C)C(c1ccccc1)C1CCCCC1(O)c1ccc(C(F)(F)F)cc1.Cl (stereo not drawn) ?
Reply | 93

Ask | CN(C)C(c1cccc(Cl)c1)C1CCCCC1(O)Cc1ccccc1.Cl (stereo not drawn) ?
Reply | 95

Ask | CN(C)C(c1ccc(C#N)cc1)C1CCCCC1(O)c1ccc(C(F)(F)F)cc1.Cl (stereo not drawn) ?
Reply | 78

Ask | CN(C)C(c1ccccc1)C1CCCCC1(O)c1ccoc1.Cl (stereo not drawn) ?
Reply | 70

Ask | CN(C)C(c1ccccc1)C1CCCCC1(O)Cc1ccccc1F.Cl (stereo not drawn) ?
Reply | 92

Ask | CCC(O)(CCc1ccccc1)C(C)C(c1ccccc1)N(C)C.Cl (stereo not drawn) ?
Reply | 86

Ask | Cl.OC1(Cc2ccccc2)CCCCC1C(c1ccccc1)N1CCCCC1 (stereo not drawn) ?
Reply | 96

====

tested on: benzothiazepine binding site of the L-type calcium channel; experiment: Diltiazem binding, L calcium channel; parameters: species or system rat; settings: 10 μM, percentage inhibition, [3H]-cis-(+)-diltiazem 5 nM, rat cerebral cortex membranes
result-type: Diltiazem Binding at 10 μM (%)
Please respond with the number in % and leave the unit unwritten.

Consider the following illustrative entries.
Ask | Test system benzothiazepine binding site of the L-type calcium channel; read-out Diltiazem Binding at 10 μM; what value for CN(C)C(c1ccccc1)C1CCCCC1(O)c1ccc(Cl)c(Cl)c1.Cl (single isomer, unassigned; (-)) [−19] ?
Reply | 85

Ask | CN(C)C(c1ccccc1)C1CCCCC1(O)Cc1cccc(F)c1F.Cl (stereo not drawn) [Example 57] ?
Reply | 83

Ask | CN(C)C(c1cccc(Cl)c1)C1CCCCC1(O)Cc1ccccc1.Cl (stereo not drawn) [Example 44] ?
Reply | 71

Ask | CN(C)C(c1ccc(F)cc1)C1CCCCC1(O)Cc1cccc(C(F)(F)F)c1.Cl (stereo not drawn) [Example 47] ?
Reply | 84

Ask | CN(C)C(c1ccccc1Cl)C1CCCCC1(O)c1ccc2ccccc2c1.Cl (stereo not drawn) [Example 38] ?
Reply | 67

Next:
Ask | Test system benzothiazepine binding site of the L-type calcium channel; read-out Diltiazem Binding at 10 μM; what value for CN(C)C(c1ccccc1)C1CCCCC1(O)c1ccoc1.Cl (stereo not drawn) [Example 17] ?
Reply | 54

Ask | Cc1ccccc1C(C1CCCCC1(O)Cc1ccccc1)N(C)C.Cl (stereo not drawn) [Example 67] ?
Reply | 98

Ask | CN(C)C(c1cccc(Oc2ccccc2)c1)C1CCCCC1(O)Cc1cccc(C(F)(F)F)c1.Cl (stereo not drawn) [Example 53] ?
Reply | 92

Ask | CN(C)C(c1ccc2ccccc2c1)C1CCCCC1(O)Cc1ccccc1.Cl (stereo not drawn) [Example 76] ?
Reply | 73

Ask | CN(C)C(c1ccccc1)C1CCCCC1(O)c1ccc(F)c(C(F)(F)F)c1.Cl (stereo not drawn) [Example 15] ?
Reply | 97

Ask | COc1cccc(C2(O)CCCCC2C(c2ccccc2)N(C)C)c1.Cl (stereo not drawn) [Example 1] ?
Reply | 65

Ask | CN(C)C(c1ccccc1)C1CCCCC1(O)Cc1ccc(OC(F)(F)F)cc1.Cl (stereo not drawn) [Example 16] ?
Reply | 100

Ask | CSc1ccccc1C1(O)CCCCC1C(c1ccccc1)N(C)C.Cl (stereo not drawn) [Example 75] ?
Reply | 89

Ask | CN(C)C(c1c(F)c(F)c(F)c(F)c1F)C1CCCCC1(O)Cc1ccccc1.Cl (stereo not drawn) [Example 77] ?
Reply | 27

Ask | CN(C)C(c1ccc(F)cc1)C1CCCCC1(O)Cc1ccccc1.Cl (stereo not drawn) [Example 41] ?
Reply | 87

Ask | CN(C)C(c1ccccc1Cl)C1CCCCC1(O)Cc1ccccc1Cl.Cl (stereo not drawn) [Example 60] ?
Reply | 79

Ask | CN(C)C(c1ccccc1)C1CCCCC1(O)c1ccc(C(F)(F)F)cc1.Cl (stereo not drawn) [Example 79] ?
Reply | 67

Ask | CN(C)C(c1cccc(Cl)c1)C1CCCCC1(O)c1ccccc1.Cl (stereo not drawn) [Example 42] ?
Reply | 50

Ask | COc1cccc(CC2(O)CCCCC2C(c2ccccc2)N(C)C)c1.Cl (stereo not drawn) [Example 13] ?
Reply | 88

Ask | CN(C)C(c1ccccc1)C1CCCCC1(O)c1cccc2c1OCO2.Cl (stereo not drawn) [Example 11] ?
Reply | 85

Ask | CN(C)C(c1ccccc1)C1CCCCC1(O)C1CCCCC1.Cl (stereo not drawn) [Example 48] ?
Reply | 86

====

This listing pairs compounds with measured Diltiazem Binding at 10 μM.
system: benzothiazepine binding site of the L-type calcium channel; test: Diltiazem binding, L calcium channel; set-up: species or system rat; details: 10 μM, percentage inhibition, [3H]-cis-(+)-diltiazem 5 nM, rat cerebral cortex membranes
Give me the value, and tack the unit on after it.

Consider the following illustrative entries.
Ask | Fill in the blank: the reported Diltiazem Binding at 10 μM of CN(C)C(c1ccccc1)C1CCCCC1(O)c1ccccc1.Cl (centres unmarked) [Example 3] is ____.
Reply | 50%

Ask | CN(C)C(c1ccccc1)C1CCCCC1(O)Cc1ccc(F)c(F)c1.Cl (centres unmarked) [Example 55] ?
Reply | 76%

Ask | CCC(O)(CCc1ccccc1)C(C)C(c1ccccc1)N(C)C.Cl (centres unmarked) [Example 59] ?
Reply | 64%

Ask | CN(C)C(c1ccccc1)C1CCCCC1(O)Cc1cccc(F)c1.Cl (centres unmarked) [Example 29] ?
Reply | 72%

Ask | COc1cccc(C(C2CCCCC2(O)c2cccc(Cl)c2)N(C)C)c1.Cl (centres unmarked) [Example 9] ?
Reply | 91%

Next:
Ask | Fill in the blank: the reported Diltiazem Binding at 10 μM of COc1ccc(OC)c(C2(O)CCCCC2C(c2ccccc2)N(C)C)c1.Cl (centres unmarked) [Example 26] is ____.
Reply | 87%

Ask | Cl.OC1(Cc2ccccc2)CCCCC1C(c1ccccc1)N1CCCCC1 (centres unmarked) [Example 78] ?
Reply | 95%

Ask | COc1cccc(CC2(O)CCCCC2C(c2cccc(OC)c2)N(C)C)c1.Cl (centres unmarked) [Example 37] ?
Reply | 94%

Ask | CN(C)C(c1ccc(Cl)c(Cl)c1)C1CCCCC1(O)Cc1ccc(C(C)(C)C)cc1.Cl (centres unmarked) [Example 46] ?
Reply | 93%

Ask | CN(C)C(c1ccccc1)C1CCCCC1(O)c1ccc2ccccc2c1.Cl (centres unmarked) [Example 21] ?
Reply | 85%

Ask | CN(C)C(c1ccc(Cl)c(Cl)c1)C1CCCCC1(O)CCc1ccccc1.Cl (centres unmarked) [Example 40] ?
Reply | 86%

Ask | CN(C)C(c1ccccc1)C1CCCCC1(O)Cc1ccc(F)cc1.Cl (centres unmarked) [Example 25] ?
Reply | 85%

Ask | CN(C)C(c1ccc(Cl)cc1)C1CCCCC1(O)Cc1cccc(C(F)(F)F)c1.Cl (centres unmarked) [Example 63] ?
Reply | 95%

Ask | CN(C)C(c1ccccc1)(c1cccc(Oc2ccccc2)c1)C1CCCCC1(O)Cc1ccccc1.Cl (centres unmarked) [Example 34] ?
Reply | 100%

====

biological target: NA transporter (Rattus norvegicus); construct: synaptosomes are isolated fresh from rat brains; from tissue; host or cells: rat hypothalamus synaptosomes (P2 fraction); experiment: synaptosomal noradrenaline uptake inhibition (NA uptake inhibition); type: biochemical; settings: read-out: NA Uptake Inhibition at 1 μM, 1 μM in the assay, synaptosomes from rat hypothalamus
Sequence (Q63380 1-617): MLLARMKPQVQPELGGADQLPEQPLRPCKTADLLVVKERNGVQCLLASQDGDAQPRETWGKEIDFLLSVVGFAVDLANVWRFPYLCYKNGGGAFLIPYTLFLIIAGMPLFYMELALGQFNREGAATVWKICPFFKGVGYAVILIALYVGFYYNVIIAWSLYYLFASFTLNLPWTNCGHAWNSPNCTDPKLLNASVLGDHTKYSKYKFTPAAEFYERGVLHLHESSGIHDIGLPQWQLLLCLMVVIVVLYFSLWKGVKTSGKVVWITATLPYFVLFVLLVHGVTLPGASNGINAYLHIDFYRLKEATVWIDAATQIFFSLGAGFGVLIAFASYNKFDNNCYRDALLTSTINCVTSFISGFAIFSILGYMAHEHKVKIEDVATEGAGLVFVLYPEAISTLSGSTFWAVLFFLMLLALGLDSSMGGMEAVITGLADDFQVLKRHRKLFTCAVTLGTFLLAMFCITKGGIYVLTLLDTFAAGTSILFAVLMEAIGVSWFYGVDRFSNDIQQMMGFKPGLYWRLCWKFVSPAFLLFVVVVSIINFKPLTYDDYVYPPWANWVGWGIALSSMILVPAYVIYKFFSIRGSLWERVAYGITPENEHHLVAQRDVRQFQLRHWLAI
This listing pairs molecules with measured inhibition at 1 µM.
Please respond with the number in % and leave the unit unwritten.

Consider the following illustrative entries.
Ask | Fill in the blank: the reported inhibition at 1 µM of CN(C)C(c1ccccc1)C1CCCCC1(O)Cc1cccc(F)c1F.Cl (stereo not drawn) [Example 57, hydrochloride] is ____.
Reply | 99

Ask | CN(C)C(c1ccc2ccccc2c1)C1CCCCC1(O)Cc1ccccc1.Cl (stereo not drawn) [Example 76, hydrochloride] ?
Reply | 80

Ask | CN(C)C(c1cccc(Cl)c1)C1CCCCC1(O)Cc1ccccc1.Cl (stereo not drawn) [Example 44, hydrochloride] ?
Reply | 99

Ask | CN(C)C(c1ccccc1)C1CCCCC1(O)c1ccc2ccccc2c1.Cl (stereo not drawn) [Example 21, hydrochloride] ?
Reply | 17

Ask | CN(C)c1ccc(C2(O)CCCCC2C(c2ccccc2)N(C)C)cc1.Cl (stereo not drawn) [Example 10, hydrochloride] ?
Reply | 48

Ask | CN(C)C(c1ccc(Cl)c(Cl)c1)C1CCCCC1(O)CCc1ccccc1.Cl (stereo not drawn) [Example 40, hydrochloride] ?
Reply | 58

Next:
Ask | Fill in the blank: the reported inhibition at 1 µM of CN(C)C(c1ccc(Cl)cc1)C1CCCCC1(O)Cc1ccccc1.Cl (stereo not drawn) [Example 58, hydrochloride] is ____.
Reply | 0

Ask | CN(C)C(c1ccc(Br)cc1)C1CCCCC1(O)Cc1ccccc1.Cl (stereo not drawn) [Example 61, hydrochloride] ?
Reply | 100

Ask | CN(C)C(c1ccccc1)C1CCCCC1(O)c1ccc(F)c(C(F)(F)F)c1.Cl (stereo not drawn) [Example 15, hydrochloride] ?
Reply | 44

Recorded values, source patent US6410790B1.
